The origin of these recorded values is patent US20200239543A1.

Target: T1, rat CD47 (rat, UniProt P97829 19-140, limits assumed)
T1 sequence (looked up): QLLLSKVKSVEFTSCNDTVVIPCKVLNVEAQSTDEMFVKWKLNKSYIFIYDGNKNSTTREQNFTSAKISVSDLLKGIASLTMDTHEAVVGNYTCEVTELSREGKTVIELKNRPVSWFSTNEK
Assay: SPR (Biacore T100 and ProteOn XPR36)
Reported Endpoint: pKd
The meaning of pKd here: minus log10 of the concentration in molar units.

| Binder | pKd |
| --- | --- |
| SIRP-α D1 variant polypeptide of SEQ ID NO: 205 (receptor) EEELQIIQPDKSVLVAAGETATLRCTITSLRPVGPIQWFRGAGPGRELIYNQREGPFPRVTTVSDTTKRNNMDFSIRIGAITPADAGTYYCVKFRKGIPDDVEFKSGAGTELSVRAKPS | 8.37 |
| SIRP-α D1 variant polypeptide of SEQ ID NO: 198 (receptor) EEELQIIQPDKSVLVAAGETATLRCTITSLYPVGPIQWFRGAGPGRELIYNQREGPFPRVTTVSDTTKRNNMDFSIRIGAITPADAGTYYCVKFRKGSPDDVEFKSGAGTELSVRAKPS | 8.01 |
| SIRP-α D1 variant fused to Fc variant, SEQ ID NO: 214 (Fc fusion) EEELQVIQPDKSVLVAAGETATLRCTATSLFPVGPIQWFRGAGPGRELIYNQREGPFPRVTTVSDLTKRNNMDFSIRIGAITPADAGTYYCVKFRKGSPDDVEFKSGAGTELSVRAKPSERKSSVECPPCPAPPVAGPSVFLFPPKPKDTLMISRTPEVTCVVVDVSHEDPEVQFNWYVDGVEVHNAKTKPREEQFASTFRVVSVLTVVHQDWLNGKEYKCKVSNKGLPSSIEKTISKTKGQPREPQVYTLPPSREEMTKNQVSLTCLVKGFYPSDIAVEWESNGQPENNYKTTPPMLDSDGSFFLYSKLTVDKSRWQQGNVFSCSVMHEALHNHYTQKSLSLSPG | 7.10 |
| SIRP-α D1 variant polypeptide of SEQ ID NO: 210 (receptor) EEELQIIQPDKSVLVAAGETATLRCTITSLFPVGPIQWFRGAGPGRELIYNQRDGPFPRVTTVSDTTKRNNMDFSIRIGAITPADAGTYYCVKFRKGIPDDVEFKSGAGTELSVRAKPS | 8.34 |

Please list pKd recorded for the binder SIRP-α D1 variant polypeptide of SEQ ID NO: 200 (receptor) EEELQIIQPDKSVLVAAGETATLRCTITSLFPVGPIQWFRGAGPGRELIYNQREGPFPRVTTVSDTTKRNNMDFSIRIGAITPADAGTYYCVKFRKGIPDDVEFKSGAGTELSVRAKPS 7.85
